test system: Jurkat AP1-luciferase Reporter; experiment: DGK AP1-Reporter Assay; format: cell-based; details: Homo sapiens, Jurkat, read-out: API-Luciferase Reporter IC50, Table 3
READOUT_LABEL: pIC50
Scale explanation: pIC50 corresponds to minus log10 of a concentration expressed in moles per litre.

// below: answered compounds
[[record]]
compound = "COc1cc(F)ccc1C(c1ccc(F)cc1)N1CCN(c2c([N+](=O)[O-])c(=O)n(C)c3ccc(C#N)nc23)CC1 (single isomer, unassigned)"
numeric_value = 7.00

[[record]]
compound = "COc1cc(F)ccc1C(c1ccc(F)cc1)N1CCN(c2c(C#N)c(=O)n(C)c3ccc(Br)nc23)CC1 (racemic) [Example 15]"
numeric_value = 5.74


Now consider the entry below.
Given COc1ccccc1C(c1ccc(F)cc1)N1CCN(c2c(C#N)c(=O)n(CC3CC3)c3ccc(Br)nc23)CC1 (racemic) , state its recorded pIC50. 5.34

###

target: human DGKζ (Homo sapiens (Human), UniProt Q13574); test: DGKζ assay (detergent/lipid micelle substrate); type: biochemical; details: DGKζ IC50, detergent/lipid micelle substrate
Sequence (Q13574 other isoform, or with tags, fused parts or gaps): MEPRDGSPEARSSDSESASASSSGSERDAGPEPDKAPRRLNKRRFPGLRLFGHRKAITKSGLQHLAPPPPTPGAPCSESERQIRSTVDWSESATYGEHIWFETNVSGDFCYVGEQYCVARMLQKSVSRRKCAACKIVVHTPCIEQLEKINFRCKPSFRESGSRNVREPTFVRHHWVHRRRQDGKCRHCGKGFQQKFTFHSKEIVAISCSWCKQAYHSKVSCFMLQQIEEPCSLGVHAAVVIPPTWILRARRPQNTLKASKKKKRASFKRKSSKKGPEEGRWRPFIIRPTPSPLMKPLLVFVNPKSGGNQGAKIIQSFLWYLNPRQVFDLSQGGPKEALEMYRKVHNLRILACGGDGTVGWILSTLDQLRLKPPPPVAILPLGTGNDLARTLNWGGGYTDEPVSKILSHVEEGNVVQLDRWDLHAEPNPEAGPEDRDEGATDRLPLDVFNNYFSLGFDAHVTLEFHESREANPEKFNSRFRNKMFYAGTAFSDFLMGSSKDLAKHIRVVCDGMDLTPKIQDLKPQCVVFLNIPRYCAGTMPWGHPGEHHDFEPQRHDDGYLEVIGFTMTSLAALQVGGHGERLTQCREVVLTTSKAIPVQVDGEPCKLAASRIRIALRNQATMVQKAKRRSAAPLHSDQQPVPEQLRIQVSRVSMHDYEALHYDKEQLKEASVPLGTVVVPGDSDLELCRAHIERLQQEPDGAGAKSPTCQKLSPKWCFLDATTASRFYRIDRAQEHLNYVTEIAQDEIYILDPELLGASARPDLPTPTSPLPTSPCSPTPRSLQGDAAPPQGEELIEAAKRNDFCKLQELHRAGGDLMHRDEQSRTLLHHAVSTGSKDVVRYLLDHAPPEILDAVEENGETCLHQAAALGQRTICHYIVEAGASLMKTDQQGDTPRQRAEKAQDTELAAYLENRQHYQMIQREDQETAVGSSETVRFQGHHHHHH
Recorded measurements of IC50, one per entry
A number alone suffices; assume µM.

[[record]]
compound = "CCC(c1ccc(F)cc1)N1CCN(c2c([N+](=O)[O-])c(=O)n(C)c3ccc(C#N)nc23)CC1 (single isomer, unassigned) [Example 33]"
readout_label = "IC50"
numeric_value = 7.6


Given COc1cc(F)ccc1C(c1ccc(F)cc1)N1CCN(c2c([N+](=O)[O-])c(=O)n(C)c3ccc(C#N)nc23)CC1 (single isomer, unassigned) [Example 125] , state its recorded IC50. 7.9

Given Cn1c(=O)c([N+](=O)[O-])c(N2CCN(C(c3ccc(F)cc3)c3cccc(F)c3O)CC2)c2nc(Br)ccc21 (single isomer, unassigned) [Example 76] , state its recorded IC50. 2.5

Given Cn1c(=O)c([N+](=O)[O-])c(N2CCN(C(c3ccc(F)cc3)c3cccc(F)c3O)CC2)c2nc(Br)ccc21 (single isomer, unassigned) [Example 75] , state its recorded IC50. 130

###

Recorded measurements of pIC50, one per entry
target: human DGKα (Homo sapiens (Human), UniProt P23743); assay: biochemical; details: detergent/lipid micelle substrate; read-out: DGKα IC50
Sequence (P23743 other isoform, or with tags, fused parts or gaps): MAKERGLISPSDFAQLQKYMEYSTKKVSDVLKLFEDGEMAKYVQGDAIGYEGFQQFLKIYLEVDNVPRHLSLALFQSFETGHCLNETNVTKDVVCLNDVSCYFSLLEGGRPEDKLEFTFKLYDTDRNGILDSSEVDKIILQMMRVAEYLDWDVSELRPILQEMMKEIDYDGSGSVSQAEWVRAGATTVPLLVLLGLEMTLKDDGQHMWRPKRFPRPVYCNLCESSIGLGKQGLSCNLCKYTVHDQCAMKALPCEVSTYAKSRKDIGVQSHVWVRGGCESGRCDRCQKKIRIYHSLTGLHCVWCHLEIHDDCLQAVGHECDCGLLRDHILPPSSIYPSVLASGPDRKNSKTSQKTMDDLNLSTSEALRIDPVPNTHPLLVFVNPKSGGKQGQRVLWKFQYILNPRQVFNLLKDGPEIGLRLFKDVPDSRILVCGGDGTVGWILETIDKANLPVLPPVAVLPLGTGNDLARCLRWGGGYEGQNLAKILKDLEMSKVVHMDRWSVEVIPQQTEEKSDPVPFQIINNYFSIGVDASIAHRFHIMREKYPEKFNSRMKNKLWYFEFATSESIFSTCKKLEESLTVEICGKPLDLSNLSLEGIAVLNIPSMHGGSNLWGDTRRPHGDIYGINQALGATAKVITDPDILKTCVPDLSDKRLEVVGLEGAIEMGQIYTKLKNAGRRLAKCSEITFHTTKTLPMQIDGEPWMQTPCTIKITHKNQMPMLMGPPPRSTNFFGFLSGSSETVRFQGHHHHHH
Scale explanation: pIC50 corresponds to minus log10 of a concentration expressed in moles per litre.

// below: answered compounds
[[record]]
compound = "Cc1ccc(CN2CCN(c3c(C#N)c(=O)n(C)c4ccc(Br)nc34)CC2)c(O)c1"
numeric_value = 7.48

[[record]]
compound = "COc1ccc2c(c1)C(N1CCN(c3c(C#N)c(=O)n(CC#N)c4ccc(Br)nc34)CC1)CC2 (stereo not shown)"
numeric_value = 3.77

[[record]]
compound = "Cn1c(=O)c([N+](=O)[O-])c(N2CCN(C(c3ccc(F)cc3)c3ccc(F)cc3O)CC2)c2nc(C#N)ccc21 (stereo not shown)"
numeric_value = 6.00

[[record]]
compound = "Cn1c(=O)c(C#N)c(N2CCN(Cc3ccc(F)cc3O)CC2)c2nc(Cl)ccc21"
numeric_value = 6.66

[[record]]
compound = "C#CCn1c(=O)c([N+](=O)[O-])c(N2CCN(C(C)c3ccc(F)cc3)CC2)c2nc(C#N)ccc21 (single isomer, unassigned) [Example 136]"
numeric_value = 6.68

[[record]]
compound = "Cc1ccc2c(n1)c(N1CCN(Cc3cc(OC(F)(F)F)ccc3O)CC1)c(C#N)c(=O)n2C"
numeric_value = 6.28


Given `Cc1ccc2c(n1)c(N1CCN(C(c3ccc(F)cc3)c3ccc(F)cc3)CC1)c(Br)c(=O)n2C` , state its recorded pIC50. 4.96

Given `Cc1ccc2c(n1)c(N1CCN(Cc3cccc(Br)c3O)CC1)c(C#N)c(=O)n2C` , state its recorded pIC50. 5.92

Given `COc1cccc(CN2CCN(c3c(C#N)c(=O)n(C)c4ccc(C)nc34)CC2)c1O` , state its recorded pIC50. 6.15

Given `Cn1c(=O)c(C#N)c(N2CCN(Cc3cccc(O)c3)CC2)c2nc(Cl)ccc21` , state its recorded pIC50. 6.44

Given C#CCn1c(=O)c([N+](=O)[O-])c(N2CCN(C(C)c3ccc(F)cc3)CC2)c2nc(C#N)ccc21 (racemic) [Example 135] , state its recorded pIC50. 6.74

Given `Cc1cccc(CN2CCN(c3c(C#N)c(=O)n(C)c4ccc(Cl)nc34)CC2)c1O` , state its recorded pIC50. 6.59

Given C#CCn1c(=O)c(C#N)c(N2CCN(C(c3ccc(F)cc3)c3ccccc3O)CC2)c2nc(Br)ccc21 (racemic) [Example 105] , state its recorded pIC50. 6.24

###

target: UniProt:P23743; experiment: DGKα LIPGLO assay (extruded liposome substrate); format: biochemical
IC50 vs 2 µM: less than gives 1.0; not less than gives 0.0.

Field: example entries. Status: answers known.
[[record]]
compound = "Cc1ccc(C(c2ccccc2)N2CCN(c3c(C#N)c(=O)n(C)c4ccc(C#N)nc34)CC2)cc1 (stereo not drawn)"
qualitative_label = 0.0

[[record]]
compound = "Cc1ccc2c(n1)c(N1CCN(C(c3ccc(F)cc3)c3ccc(F)cc3)CC1)c(Br)c(=O)n2C"
qualitative_label = 0.0


Lab log: compare recorded IC50 with 2 µM; is it strictly lower for COc1cc(F)ccc1C(c1ccc(F)cc1)N1CCN(c2c(C#N)c(=O)n(C)c3ccc(C#N)nc23)CC1 (single isomer, unassigned) [Example 407] ? 1.0

Lab log: compare recorded IC50 with 2 µM; is it strictly lower for Cn1c(=O)c(C#N)c(N2CCN(C(c3ccc(F)cc3)c3ccccn3)CC2)c2nc(C#N)ccc21 (stereo not drawn) ? 0.0

Lab log: compare recorded IC50 with 2 µM; is it strictly lower for `Cn1c(=O)c(C#N)c(N2CCN(Cc3cccc4ccccc34)CC2)c2nc(C#N)ccc21` ? 0.0

Lab log: compare recorded IC50 with 2 µM; is it strictly lower for `COc1ccc2c(n1)c(N1CCN(C(c3ccc(F)cc3)c3ccc(F)cc3)CC1)c(C#N)c(=O)n2C` ? 0.0

Lab log: compare recorded IC50 with 2 µM; is it strictly lower for `Cn1c(=O)c(C#N)c(N2CCN(C(c3ccc(F)cc3)c3ccc(F)cc3)CC2)c2ncccc21` ? 0.0

###

target: human DGKζ (Homo sapiens (Human), UniProt Q13574); assay: DGKζ LIPGLO assay (extruded liposome substrate); format: biochemical; conditions: extruded liposome substrate; read-out: DGKζ LIPGLO IC50
IC50 vs 10 µM: less than gives T; not less than gives F.

Field: example entries. Status: answers known.
[[record]]
compound = "COc1cc(F)ccc1C(c1ccc(F)cc1OC)N1CCN(c2c(C#N)c(=O)n(C)c3ccc(C)nc23)CC1"
target_of_assay = "human DGKζ (Homo sapiens (Human), UniProt Q13574)"
qualitative_label = "T"

[[record]]
compound = "O=c1c([N+](=O)[O-])c(N2CCN(C(c3ccccc3)c3ccccc3)CC2)c2ncccc2n1CCC1OCCCO1"
target_of_assay = "human DGKζ (Homo sapiens (Human), UniProt Q13574)"
qualitative_label = "F"

[[record]]
compound = "Cn1c(=O)c(C#N)c(N2CCN(C(c3ccc(F)cc3)c3ccccn3)CC2)c2nc(C#N)ccc21 (stereo not drawn)"
target_of_assay = "human DGKζ (Homo sapiens (Human), UniProt Q13574)"
qualitative_label = "T"

[[record]]
compound = "COc1cc(C)ccc1C(c1ccc(F)cc1)N1CCN(c2c([N+](=O)[O-])c(=O)n(C)c3ccc(C#N)nc23)CC1 (stereo not drawn)"
target_of_assay = "human DGKζ (Homo sapiens (Human), UniProt Q13574)"
qualitative_label = "T"

[[record]]
compound = "Cn1c(=O)c([N+](=O)[O-])c(N2CCN(CC(O)c3ccc(F)cc3)CC2)c2nc(C#N)ccc21 (stereo not drawn)"
target_of_assay = "human DGKζ (Homo sapiens (Human), UniProt Q13574)"
qualitative_label = "F"


Lab log: compare recorded IC50 with 10 µM; is it strictly lower for Cn1c(=O)c([N+](=O)[O-])c(N2CCN(C(c3ccc(F)cc3)C3CC3)CC2)c2nc(C#N)ccc21 (single isomer, unassigned) [Example 51] ? T

Lab log: compare recorded IC50 with 10 µM; is it strictly lower for `Cn1c(=O)c(C#N)c(N2CCN(Cc3cc(O)cc(F)c3)CC2)c2nc(Cl)ccc21` ? F

Lab log: compare recorded IC50 with 10 µM; is it strictly lower for `Cn1c(=O)c(C#N)c(N2CCN(Cc3ccc(O)c(F)c3)CC2)c2nc(Cl)ccc21` ? F

Lab log: compare recorded IC50 with 10 µM; is it strictly lower for Cn1c(=O)c(C#N)c(N2CCN(C(c3ccc(F)cc3)C3CC3)CC2)c2nc(Br)ccc21 (stereo not drawn) ? F

###

Recorded measurements of pIC50, one per entry
Target: human DGKα (Homo sapiens (Human), UniProt P23743)
Assay: biochemical
Settings: detergent/lipid micelle substrate; read-out: DGKα IC50
Experimental: The DGKα and DGKζ reactions were performed using either extruded liposome (DGKα and DGKζ LIPGLO assays) or detergent/lipid micelle substrate (DGKα and DGKζ assays). […] The compound inhibition studies were carried out as follows: 50 nL droplets of each test compound (top concentration 10 mM with 11 point, 3-fold dilution series for each compound) solubilized in DMSO were transferred to wells of a white 1536 well plate (Corning 3725). […] Luminescence was recorded using an EnVision microplate reader. […]
Scale explanation: pIC50 corresponds to minus log10 of a concentration expressed in moles per litre.

// below: answered compounds
[[record]]
compound = "Cn1c(=O)c(C#N)c(N2CCN(C3(c4ccc(F)cc4)CC3)CC2)c2nc(Cl)ccc21"
numeric_value = 4.16

[[record]]
compound = "Cc1ccc2c(n1)c(N1CCN(C(c3ccc(F)cc3)c3ccc(F)cc3)CC1)c(C#N)c(=O)n2C"
numeric_value = 5.80

[[record]]
compound = "Cc1ccc2c(n1)c(N1CCN(C(c3ccc(F)cc3)c3ccc(F)cc3)CC1)c(F)c(=O)n2C"
numeric_value = 4.80

[[record]]
compound = "COc1ccccc1C(c1ccc(F)cc1)N1CCN(c2c([N+](=O)[O-])c(=O)n(C)c3ccc(C#N)nc23)CC1 (racemic) [Example 18]"
numeric_value = 6.02

[[record]]
compound = "Cc1ccc2c(n1)c(N1CCN(Cc3ccc(F)cc3O)CC1)c(C#N)c(=O)n2C"
numeric_value = 7.12

[[record]]
compound = "Cc1cccc(O)c1CN1CCN(c2c(C#N)c(=O)n(C)c3ccc(Cl)nc23)CC1"
numeric_value = 6.57


Given `Cc1ccc(CN2CCN(c3c(C#N)c(=O)n(C)c4ccc(Cl)nc34)CC2)c(F)c1` , state its recorded pIC50. 5.85

Given CCC(c1ccc(F)cc1)N1CCN(c2c(C#N)c(=O)n(CC#N)c3ccc(Br)nc23)CC1 (stereo not drawn) , state its recorded pIC50. 4.62

Given `Cn1c(=O)c(C#N)c(N2CCN(Cc3cccc(Br)c3O)CC2)c2nc(Cl)ccc21` , state its recorded pIC50. 6.17

Given Cn1c(=O)c([N+](=O)[O-])c(N2CCN(C(c3ccccc3)c3ccccc3O)CC2)c2nc(Br)ccc21 (single isomer, unassigned) [Example 78] , state its recorded pIC50. 4.92

Given `Cn1c(=O)c(C#N)c(N2CCN(Cc3cccc(Cl)c3)CC2)c2nc(Cl)ccc21` , state its recorded pIC50. 6.21
